# System tested: catalytic kinase (JH1) domain of human TYK2 (Homo sapiens, UniProt P29597)
# Construct: recombinantly generated catalytic kinase (also known as JH1) domain of human JAK1, JAK2, JAK3 and TYK2
# Sequence (P29597 897-1176 limits assumed): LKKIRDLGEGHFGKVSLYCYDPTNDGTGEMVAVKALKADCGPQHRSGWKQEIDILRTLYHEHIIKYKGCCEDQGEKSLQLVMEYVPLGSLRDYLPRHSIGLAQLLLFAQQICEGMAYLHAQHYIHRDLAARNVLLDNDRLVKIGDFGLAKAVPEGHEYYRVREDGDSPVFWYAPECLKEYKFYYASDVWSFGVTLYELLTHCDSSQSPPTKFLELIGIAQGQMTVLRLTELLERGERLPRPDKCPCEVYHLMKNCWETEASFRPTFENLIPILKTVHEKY
# Assay: ADP-Glo kinase assay, TYK2 kinase domain
# Type: biochemical
Quantity measured: IC50
A complete answer gives the number and then names the unit.

| Compound | IC50 |
| --- | --- |
| COc1cc(-c2cc3c(N4CC5CCC(C4)N5[C@H]4C[C@H](C#N)C4)ccnc3[nH]2)ccn1 | 2.13 nM |
| Cn1cc(-c2cc3c(N4CC5CCC(C4)N5[C@H]4C[C@@H](S(C)(=O)=O)C4)ccnn3c2)cn1 | 50.5 nM |
| Cn1cc(-c2cc3c(N4CC5CCC(C4)N5[C@H]4C[C@@H](C#N)C4(C)C)ccnn3c2)cn1 (single isomer, unassigned) | 2.33 nM |
| Cn1cc(-c2cc3c(N4CC5CCC(C4)N5C4CC5(COC5)C4)ccnn3c2)cn1 | 42.5 nM |
| Cc1cc(-c2cc3c(N4CC5CCC(C4)N5[C@H]4C[C@@H](C#N)C4)ccnn3c2)on1 | 4.25 nM |
| Cc1cc(-c2cc3c(N4CC5CCC(C4)N5[C@H]4C[C@H](C#N)C4)ccnn3c2)on1 | 40.5 nM |
| Cn1cc(-c2cc3c(N4CC5CCC(C4)N5C4CCC4)ccnn3c2)cn1 | 195 nM |
| Cn1cc(-c2cc3c(N4CC5CCC(C4)N5[C@H]4C[C@H](S(C)(=O)=O)C4)ccnn3c2)cn1 | 310 nM |

The compound Cn1cc(-c2cc3c(N4CC5CCC(C4)N5[C@H]4CCC45COC5)ccnn3c2)cn1 (single isomer, unassigned) , when measured on catalytic kinase (JH1) domain of human TYK2 (Homo sapiens, UniProt P29597), yielded IC50 of 320 nM

For Cn1cc(-c2cn3nccc(N4CC5CCC(C4)N5[C@H]4C[C@@H](C#N)C4)c3n2)cn1 on catalytic kinase (JH1) domain of human TYK2 (Homo sapiens, UniProt P29597), measured IC50 was 70.7 nM

catalytic kinase (JH1) domain of human TYK2 (Homo sapiens, UniProt P29597) data for N#CC1CC(N2C3CCC2CN(c2ccnn4cc(-c5ccnnc5)cc24)C3)C1 (stereo not drawn) ; its IC50: 11.5 nM

* * *

# System tested: catalytic kinase (JH1) domain of human JAK1 (Homo sapiens, UniProt P23458)
# Construct: 4 nM of recombinant JAK1 kinase domain is used to phosphorylate
# Sequence (P23458 875-1153 limits assumed): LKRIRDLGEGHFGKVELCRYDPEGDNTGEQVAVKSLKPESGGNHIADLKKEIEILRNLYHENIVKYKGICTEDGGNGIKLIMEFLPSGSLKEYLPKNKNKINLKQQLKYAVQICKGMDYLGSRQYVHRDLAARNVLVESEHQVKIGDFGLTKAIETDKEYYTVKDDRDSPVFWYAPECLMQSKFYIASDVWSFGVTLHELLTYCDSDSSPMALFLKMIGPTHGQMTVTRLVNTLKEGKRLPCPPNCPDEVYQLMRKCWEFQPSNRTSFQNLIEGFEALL
# Assay: ADP-Glo kinase assay, JAK1 kinase domain
# Format: biochemical
# Settings: 4 nM recombinant JAK1 kinase domain, 50 μM JAK3-342 peptide, 35 μM ATP, 100 minutes; read-out: JAK1 biochem IC50 (nM) Mean
Where a name gives a salt, the structure may show the parent alone.
Quantity measured: IC50

Known IC50 results, listed for orientation:
| Compound | Quantity measured | Reported |
| --- | --- | --- |
| c1cc(-c2cc3c(N4CC5CCC(C4)N5C4COC4)ccnn3c2)cnn1 | IC50 | 820 nM |
| Cn1cc(-c2cc3c(N4CC5CCC(C4)N5[C@H]4C[C@H](C#N)C4)ncnc3[nH]2)cn1 | IC50 | 4250 nM |
| CN1CC(N2C3CCC2CN(c2ccnc4[nH]c(-c5cnn(C)c5)nc24)C3)C1 [Example 12, trifluoroacetate] | IC50 | 2850 nM |

Kindly note the recorded IC50 for Cn1cc(-c2nc3c(N4C[C@H]5CC[C@@H](C4)N5C4CC(C(F)F)C4)ccnc3[nH]2)cn1 (stereo partly shown) , which is 340 nM

// CO[C@H]1C[C@@H](N2C3CCC2CN(c2ccnc4[nH]c(-c5cnn(C)c5)nc24)C3)C1 : IC50 value = 1800 nM

Notebook: COCC[C@]1(C#N)C[C@@H](N2C3CCC2CN(c2ccnn4cc(-c5cnn(C)c5)cc24)C3)C1 , IC50 read as 88 nM

Kindly note the recorded IC50 for Cn1cc(-c2cc3c(N4CC5CCC(C4)N5[C@H]4C[C@@H](O)C4)ccnn3c2)cn1 , which is > 10000 nM

* * *

Quick list: IC50 per entry.
# System tested: catalytic kinase (JH1) domain of human JAK3 (Homo sapiens)
# Construct: Catalytic activities of recombinant JAK2, JAK3 and TYK2 kinase domain
# Sequence (P52333 822-1111 limits assumed): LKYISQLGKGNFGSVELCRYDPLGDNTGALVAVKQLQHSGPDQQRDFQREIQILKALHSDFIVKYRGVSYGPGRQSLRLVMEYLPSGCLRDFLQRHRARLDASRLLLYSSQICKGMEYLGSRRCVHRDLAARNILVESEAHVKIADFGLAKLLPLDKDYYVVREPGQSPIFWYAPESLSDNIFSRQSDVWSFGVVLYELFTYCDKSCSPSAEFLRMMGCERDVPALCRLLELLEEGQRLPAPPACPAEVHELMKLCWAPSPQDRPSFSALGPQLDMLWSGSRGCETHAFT
# Assay: ADP-Glo kinase assay, JAK3 kinase domain
# Type: biochemical
# Method: As summarized in Table 3 below, compounds of the disclosure were assessed for their ability to inhibit TYK2, JAK1, JAK2, and JAK3 activity. The kinase activity of recombinantly generated catalytic kinase (also known as JH1) domain of human JAK1, JAK2, JAK3 and TYK2 were evaluated in a plate-based assay using the ADP-Glo™ Kinase Assay platform. […]
Numeric answer only, unit nM assumed.

Solved entries (count: 2):
| Molecule | Reported |
| --- | --- |
| COc1cc(-c2cc3c(N4CC5CCC(C4)N5C4CC(C#N)C4)ccnc3[nH]2)ccn1 (stereo not shown) | 82 |
| Cc1cc(-c2cc3c(N4CC5CCC(C4)N5[C@H]4C[C@H](C#N)C4)ccnn3c2)on1 | 3450 |

molecule Cn1cc(-c2cc3c(N4CC5CCC(C4)N5[C@H]4C[C@H](C#N)C4(C)C)ccnn3c2)cn1 (single isomer, unassigned) , IC50 observed: 1850

* * *

# System tested: catalytic kinase (JH1) domain of human JAK2 (Homo sapiens, UniProt O60674)
# Construct: Catalytic activities of recombinant JAK2, JAK3 and TYK2 kinase domain
# Sequence (O60674 849-1124 limits assumed): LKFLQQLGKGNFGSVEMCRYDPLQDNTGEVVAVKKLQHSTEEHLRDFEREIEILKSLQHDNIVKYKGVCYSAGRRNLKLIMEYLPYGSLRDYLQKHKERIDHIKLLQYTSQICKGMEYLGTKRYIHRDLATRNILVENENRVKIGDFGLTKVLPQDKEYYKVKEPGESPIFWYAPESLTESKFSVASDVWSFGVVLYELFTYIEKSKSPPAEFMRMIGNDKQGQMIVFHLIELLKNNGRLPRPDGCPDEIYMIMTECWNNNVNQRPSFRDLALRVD
# Assay: ADP-Glo kinase assay, JAK2 kinase domain
# Format: biochemical
Reported IC50 by item:
Kindly provide the numeric value in nM only, without the unit symbol.

| Molecule | Quantity measured | Reported |
| --- | --- | --- |
| CO[C@H]1CC[C@@H]1N1C2CCC1CN(c1ccnn3cc(-c4cnn(C)c4)cc13)C2 (racemic) [Example 51] | IC50 | 6050 |
| Cc1cc(-c2cc3c(N4CC5CCC(C4)N5[C@H]4C[C@H](C#N)C4)ccnn3c2)on1 [Example 58] | IC50 | 385 |
| Cn1cc(-c2cc3c(N4CC5CCC(C4)N5C4CC5(COC5)C4)ccnn3c2)cn1 [Example 33] | IC50 | 740 |

Now, please, on to the next molecule.
Input Cn1cc(-c2cc3c(N4CC5CCC(C4)N5[C@H]4C[C@H](C#N)C4(C)C)ccnn3c2)cn1 (single isomer, unassigned) [Example 46] . Output IC50: 215

* * *

Listed next: entries and their corresponding IC50.
# System tested: catalytic kinase (JH1) domain of human JAK3 (Homo sapiens)
# Construct: Catalytic activities of recombinant JAK2, JAK3 and TYK2 kinase domain
# Assay: ADP-Glo kinase assay, JAK3 kinase domain
# Assay type: biochemical
# Settings: 0.3 nM recombinant JAK3 kinase domain, 50 μM JAK3-974 peptide, 4 μM ATP, 100 minutes; read-out: JAK3 biochem IC50 (nM) Mean
Record the value in nM, omitting the unit from your answer.

The following compounds have reported results that may help.
| Compound | Reported |
| --- | --- |
| Cn1cc(-c2nc3c(N4CC5CCC(C4)N5[C@H]4C[C@](C)(C#N)C4)ccnc3[nH]2)cn1 | 850 |
| COC1CC(N2C3CCC2CN(c2ccnn4cc(-c5cnn(C)c5)cc24)C3)C1 (stereo not shown) | 4250 |
| Cn1cc(-c2cc3c(N4CC5CCC(C4)N5[C@H]4C[C@@H](C#N)C4)ccnc3[nH]2)cn1 | 550 |
| Cn1cc(-c2cc3c(N4CC5CCC(C4)N5[C@H]4C[C@@H](CC#N)C4)ccnn3c2)cn1 | 3550 |
| Cn1cc(-c2cc3c(N4CC5CCC(C4)N5[C@H]4C[C@@](C)(C#N)C4)ccnn3c2)cn1 | 190 |
| Cn1cc(-c2cc3c(N4CC5CCC(C4)N5[C@H]4C[C@H](C#N)C4)ncnc3[nH]2)cn1 | 1650 |
| Cn1cc(-c2cc3c(N4CC5CCC(C4)N5C4(CC#N)COC4)ccnn3c2)cn1 | 1400 |
| Cn1cc(-c2cc3c(N4CC5CCC(C4)N5C4CC(C#N)C4)ccnc3[nH]2)cn1 (stereo not shown) | 67.7 |

Now, please, on to the next compound.
For Cn1cc(-c2cc3c(N4CC5CCC(C4)N5C4COC4)ccnn3c2)cn1 the compound record lists IC50 as 2150

From: patent US20250387400A1
